# target-or-test-system: human Dual Specificity Protein Phosphatase 3 (DUSP3), DUSP3 (gene 1845) (UniProt P51452)
# Sequence (P51452 whole entry, looked up): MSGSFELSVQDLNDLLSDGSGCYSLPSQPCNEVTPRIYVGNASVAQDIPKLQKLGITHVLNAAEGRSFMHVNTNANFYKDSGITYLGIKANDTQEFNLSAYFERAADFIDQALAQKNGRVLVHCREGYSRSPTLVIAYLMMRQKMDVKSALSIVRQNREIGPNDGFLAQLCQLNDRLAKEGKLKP
# assay-details: NVS_ENZ_hDUSP3: NovaScreen (NVS) Enzymatic Assay for human Dual Specificity Protein Phosphatase 3 (DUSP3) (AID 2283152);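 also: phosphatase activity of recombinant human DUSP3 on a fluorogenic substrate without cells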
Calls of active or inactive are those of the source. The calls were made as follows: active = hit-call score of the fitted dose curve at least 0.9, where 1 is the maximum; inconclusive = response in the unintended direction; inactive = score below 0.9.
Listing of entries alongside the reported AC50.

// below: answered compounds
{"molecule": "COP(=S)(OC)Oc1ccc(S(=O)(=O)N(C)C)cc1", "property-measured": "AC50", "result": "7.43 µM (active)"}
{"molecule": "COP(=S)(OC)Oc1c(Cl)cc(C)cc1Cl", "property-measured": "AC50", "result": "20.9 µM (active)"}
{"molecule": "CCOP(=S)(OCC)SCSP(=S)(OCC)OCC", "property-measured": "AC50", "result": "6.76 µM (active)"}
{"molecule": "COP(=S)(OC)Oc1cc(Cl)c(Cl)cc1Cl", "property-measured": "AC50", "result": "11.8 µM (active)"}

Next, consider the following compound.
Prompt: So what's the measured AC50 for this one? O=C(O)C(F)(F)C(F)(F)C(F)(F)C(F)(F)C(F)(F)C(F)(F)C(F)(F)C(F)(F)C(F)(F)C(F)(F)F
Completion: 2.72 µM (active)

----------
# assay-details: Tanguay_ZF_120hpf_PE_legacy: (Legacy) Oregon State University Tanguay Lab 120 Hour Post-fertilization zebrafish Assay for Pericardial Edema (AID 2283640)
Results filed as inconclusive are left out. Calls of active or inactive are those of the source. How the source made its calls: active means hit-call score of the fitted dose curve at least 0.9, where 1 is the maximum; inconclusive means response in the unintended direction; inactive means score below 0.9.
Use one of these outcomes when replying: label 1 for active, label 0 for inactive

These solved cases illustrate the format of a correct answer.
{"compound": "C=CC(=O)OCCCCCC(C)C", "category": "label 0"}
{"compound": "ClC1(Cl)C2(Cl)C3(Cl)C4(Cl)C(Cl)(Cl)C5(Cl)C3(Cl)C1(Cl)C5(Cl)C24Cl (stereo not drawn)", "category": "label 0"}
{"compound": "C=C(C)C(=O)[O][Sn]([CH2]CCC)([CH2]CCC)[CH2]CCC", "category": "label 0"}
{"compound": "Oc1cccc2cccnc12", "category": "label 0"}
{"compound": "NC(=O)O", "category": "label 0"}
{"compound": "CN(C)N=O", "category": "label 0"}
{"compound": "CCN1CCC2(CC1)COc1cc3c(cc12)N(C(=O)c1ccc(-c2ccc(-c4nnc(C)o4)cc2C)cc1)CC3", "category": "label 0"}
{"compound": "CC(C)(C)CC(C)(C)c1ccc(O)cc1", "category": "label 0"}
{"compound": "CCCCCCCCc1ccc(O)cc1", "category": "label 0"}
{"compound": "CC12CC1(C)C(=O)N(c1cc(Cl)cc(Cl)c1)C2=O (stereo not drawn)", "category": "label 0"}

Prompt: # lookup: test call for CCC(=O)C(CC(C)N(C)C)(c1ccccc1)c1ccccc1 (stereo not drawn)
Completion: label 1

Prompt: Try the compound C[C@]12CCC(=O)C[C@@H]1CC[C@@H]1[C@@H]2CC[C@]2(C)[C@@H](O)CC[C@@H]12
Completion: label 0

Prompt: Try the compound CCC(C)(C)c1ccc(O)c(C(C)(C)CC)c1
Completion: label 0

----------
# assay-details: ATG_MRE_CIS: Attagene CIS-FACTORIAL HepG2 Assay for human Metal Responsive Element (MRE) (AID 2282954)
# experimental-conditions: HepG2 MRE cis-reporter transcription, Attagene multiplex; actives raise or lower the signal
Activity calls are given as the source filed them. The calls were made as follows: active = hit-call score of the fitted dose curve at least 0.9, where 1 is the maximum; inactive = score below 0.9.
property-measured: AC50

// below: answered compounds
{"compound": "Clc1ccc(COC(Cn2ccnc2)c2ccc(Cl)cc2Cl)cc1 (stereo not drawn)", "result": "inactive"}
{"compound": "O=C(NCO)NCO", "result": "inactive"}
{"compound": "C=C(C)C(=O)[O][Sn]([CH2]CCC)([CH2]CCC)[CH2]CCC", "result": "0.412 µM (active)"}
{"compound": "CC(=O)[O][Hg][c]1ccccc1", "result": "5.86 µM (active)"}
{"compound": "Cl/C=C\\C[N+]12CN3CN(CN(C3)C1)C2", "result": "inactive"}
{"compound": "CCSC(C)CC1CC(=O)C(C(CC)=NOC/C=C/Cl)=C(O)C1 (stereo not drawn)", "result": "inactive"}
{"compound": "CCOP(=S)(OCC)Oc1ccc(S(C)=O)cc1 (stereo not drawn)", "result": "inactive"}
{"compound": "Cc1ccc2ccccc2c1C", "result": "inactive"}

Prompt: So what's the measured AC50 for this one? CCc1ccccc1C
Completion: inactive

Prompt: Try the compound CNC
Completion: inactive

Prompt: Try the compound CC(C)CCCCCCOC(=O)c1ccccc1C(=O)OCCCCCCC(C)C
Completion: inactive

Prompt: Try the compound c1cc[c]([Hg][c]2ccccc2)cc1
Completion: 14.4 µM (active)

Prompt: Try the compound COC(=O)c1sccc1S(=O)(=O)NC(=O)Nc1nc(C)nc(OC)n1
Completion: inactive

----------
# assay-details: ATG_Oct_MLP_CIS: Attagene CIS-FACTORIAL HepG2 Assay for human Octamer-Binding Transcription Factor (Oct) (AID 2282993)
# experimental-conditions: HepG2 Attagene cis-factorial Oct reporter, mRNA; actives raise or lower the signal
Calls of active or inactive are those of the source. Rule for the calls: active = hit-call score of the fitted dose curve at least 0.9, where 1 is the maximum; inactive = score below 0.9.
Use one of these outcomes when replying: active, inactive

{"compound": "Cc1ccc2ccccc2c1C", "category": "inactive"}
{"compound": "CCCCCCCCC(=O)NCc1ccc(O)c(OC)c1", "category": "inactive"}
{"compound": "CCOC(=O)/C=C(C)/C=C/C[C@@H](C)CCCC(C)C", "category": "active"}
{"compound": "CCOP(=S)(OCC)SCSP(=S)(OCC)OCC", "category": "inactive"}
{"compound": "O=CC=O", "category": "inactive"}
{"compound": "NC(=O)O", "category": "inactive"}

Prompt: # lookup: test call for CCOP(OCC)OCC
Completion: inactive

Prompt: Try the compound CC12CC1(C)C(=O)N(c1cc(Cl)cc(Cl)c1)C2=O (stereo not drawn)
Completion: inactive

----------
# assay-details: STM_H9_OrnithineISnorm_perc: Stemina devTOX quickPredict H9 human embryonic stem cell (hESC)-based Assay for Ornithine (ORN) Metabolite Biomarker, Normalized (AID 2283712);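 also: ornithine released into spent medium during last day measured by mass spectrometry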
Calls of active or inactive are those of the source. The calls were made as follows: active = hit-call score of the fitted dose curve at least 0.9, where 1 is the maximum; inactive = score below 0.9.

{"molecule": "CC(C)(C)c1cc(O)ccc1O", "AC50": "inactive"}
{"molecule": "CC(=O)[O][Hg][c]1ccccc1", "AC50": "476 nM (active)"}
{"molecule": "O=C(O)C(Cl)(Cl)Cl", "AC50": "inactive"}
{"molecule": "O=C(Nc1ccc2[nH]ccc2c1)c1cc2cc(F)ccc2n1Cc1cccc(F)c1", "AC50": "3500 nM (active)"}

----------
# assay-details: APR_HepG2_CellCycleArrest_24hr: Apredica 24-hour HepG2 Assay for Cell Cycle Arrest (AID 2282905);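 also: cell cycle arrest scored as ratio of 2N to 4N nuclear DNA content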
# experimental-conditions: imaging, actives raise or lower the signal
Calls of active or inactive are those of the source. Rule for the calls: active = hit-call score of the fitted dose curve at least 0.9, where 1 is the maximum; inactive = score below 0.9.
Use one of these outcomes when replying: class 1 = active, class 0 = inactive

These solved cases illustrate the format of a correct answer.
{"molecule": "Cc1ccccc1N", "category": "class 0"}
{"molecule": "NC(=O)O", "category": "class 1"}
{"molecule": "ClC1(Cl)C2(Cl)C3(Cl)C4(Cl)C(Cl)(Cl)C5(Cl)C3(Cl)C1(Cl)C5(Cl)C24Cl (configuration not stated)", "category": "class 0"}
{"molecule": "ClCC(Cl)CCl", "category": "class 0"}

Prompt: # lookup: test call for CCCCCCCCc1ccc(O)cc1
Completion: class 0

Prompt: Try the molecule C[C@]12CCC(=O)C[C@@H]1CC[C@@H]1[C@@H]2CC[C@]2(C)[C@@H](O)CC[C@@H]12
Completion: class 0

Prompt: Try the molecule C=CC(=O)OCCCCCC(C)C
Completion: class 0

----------
# Read-out: Alpha-fetoprotein (AFP) gene, AFP (gene 174)
# assay-details: LTEA_HepaRG_AFP: Life Technologies and Expression Analysis (LTEA) Assay for Alpha-fetoprotein (AFP) gene using HepaRG (AID 2283472);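 as to AC50: AFP transcript by TaqMan qRT-PCR normalized to ACTB GAPDH and POLR2A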
# experimental-conditions: mRNA level, 48 h; actives raise or lower the signal
Activity calls are given as the source filed them. How the source made its calls: active means hit-call score of the fitted dose curve at least 0.9, where 1 is the maximum; inactive means score below 0.9.
property-measured: AC50

{"molecule": "O=[N+]([O-])c1ccc(O)c([N+](=O)[O-])c1", "AC50": "24.2 µM (active)"}
{"molecule": "CC(C)(c1ccccc1)c1ccc(O)c(C(C)(C)c2ccccc2)c1", "AC50": "68.7 µM (active)"}
{"molecule": "COc1cc(-c2ccc(N)c(OC)c2)ccc1N", "AC50": "50 µM (active)"}
{"molecule": "Cc1ccccc1N", "AC50": "inactive"}
{"molecule": "CC(=O)[O][Hg][c]1ccccc1", "AC50": "5 µM (active)"}
{"molecule": "CCC(C)(C)c1ccc(O)c(C(C)(C)CC)c1", "AC50": "inactive"}
{"molecule": "CN(C)N=O", "AC50": "inactive"}
{"molecule": "C=CC(=O)OCCCCCC(C)C", "AC50": "inactive"}

Prompt: So what's the measured AC50 for this one? CCOP(=S)(OCC)Oc1nc(Cl)c(Cl)cc1Cl
Completion: inactive

Prompt: Try the molecule CC(C)(C)c1cc(O)ccc1O
Completion: inactive
